# assay-target: L-lactate dehydrogenase (Plasmodium falciparum (isolate CDC / Honduras)) (UniProt Q27743)
# Sequence (Q27743 whole entry, looked up): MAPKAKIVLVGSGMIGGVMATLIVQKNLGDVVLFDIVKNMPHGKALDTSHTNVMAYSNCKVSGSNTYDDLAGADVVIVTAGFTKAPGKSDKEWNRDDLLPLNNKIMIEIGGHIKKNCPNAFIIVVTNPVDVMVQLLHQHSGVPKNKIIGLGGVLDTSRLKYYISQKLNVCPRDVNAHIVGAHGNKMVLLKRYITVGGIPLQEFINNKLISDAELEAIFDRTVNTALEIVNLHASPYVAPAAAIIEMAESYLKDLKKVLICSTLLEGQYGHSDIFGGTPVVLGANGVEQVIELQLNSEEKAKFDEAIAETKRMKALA
# method-summary: PfLDH activity inhibition – cell lysate, 3D7 strain, counter-screen for P. falciparum growth inhibition project (AID 2304);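 further: 0% = vehicle and 100% = reference inhibitor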
# experimental-context: P. falciparum 3D7 crude extract, LDH APAD/NBT absorbance; at 2 µM; stronger effect = higher value
Quick reference: inhibition of the listed items.
outcome-measure: inhibition (%)

{"compound": "COC(=O)C(=C(C)C)N1C(=O)[C@@H](NC(=O)OCc2ccccc2)[C@H]1SS[C@@H]1[C@H](NC(=O)OCc2ccccc2)C(=O)N1C(C(=O)OC)=C(C)C", "assay-target": "L-lactate dehydrogenase (Plasmodium falciparum (isolate CDC / Honduras)) (UniProt Q27743)", "outcome-measure": "inhibition", "recorded-result": -5}
{"compound": "CC(Nc1ccnc2cc(Cl)ccc12)c1ccc(S(N)(=O)=O)cc1 (centres undefined)", "assay-target": "L-lactate dehydrogenase (Plasmodium falciparum (isolate CDC / Honduras)) (UniProt Q27743)", "outcome-measure": "inhibition", "recorded-result": 3}
{"compound": "COc1ccc(F)cc1-c1cccc(CNC2CCN(CC3Cn4c(=O)ccc5ccc(F)c3c54)CC2)c1 (centres undefined)", "assay-target": "L-lactate dehydrogenase (Plasmodium falciparum (isolate CDC / Honduras)) (UniProt Q27743)", "outcome-measure": "inhibition", "recorded-result": 1}
{"compound": "CC(C)C[C@H](NC(=O)c1ccc(OCCN2CCOCC2)cc1)C(=O)N[C@H](/C=N/NC(=O)OC(C)(C)C)CCc1ccccc1", "assay-target": "L-lactate dehydrogenase (Plasmodium falciparum (isolate CDC / Honduras)) (UniProt Q27743)", "outcome-measure": "inhibition", "recorded-result": -4}
{"compound": "Fc1ccccc1C=NNc1ccnc2ccccc12", "assay-target": "L-lactate dehydrogenase (Plasmodium falciparum (isolate CDC / Honduras)) (UniProt Q27743)", "outcome-measure": "inhibition", "recorded-result": 0}
{"compound": "COc1ccc(-c2cccc(NC(=O)c3cccc(Cl)c3)c2)cc1CN1CCC(O)CC1", "assay-target": "L-lactate dehydrogenase (Plasmodium falciparum (isolate CDC / Honduras)) (UniProt Q27743)", "outcome-measure": "inhibition", "recorded-result": 5}
{"compound": "O=C(NCCc1ccc(Cl)c(Cl)c1)C1CCCN(C(=O)c2ccc(O)c(-c3ccc(Cl)c(Cl)c3)c2)C1 (centres undefined)", "assay-target": "L-lactate dehydrogenase (Plasmodium falciparum (isolate CDC / Honduras)) (UniProt Q27743)", "outcome-measure": "inhibition", "recorded-result": -3}
{"compound": "CC1(CCCCN2CCC(Cc3ccccc3)CC2)C(=O)Nc2ccccc21 (centres undefined)", "assay-target": "L-lactate dehydrogenase (Plasmodium falciparum (isolate CDC / Honduras)) (UniProt Q27743)", "outcome-measure": "inhibition", "recorded-result": -8}
{"compound": "O=C(Nc1cc(C(F)(F)F)cc(C(F)(F)F)c1)c1cccc([N+](=O)[O-])c1", "assay-target": "L-lactate dehydrogenase (Plasmodium falciparum (isolate CDC / Honduras)) (UniProt Q27743)", "outcome-measure": "inhibition", "recorded-result": -2}

* * *

# assay-target: L-lactate dehydrogenase (Plasmodium falciparum (isolate CDC / Honduras)) (UniProt Q27743)
# method-summary: PfLDH activity inhibition – cell lysate, 3D7 strain, counter-screen for P. falciparum growth inhibition project (AID 2304);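 further: 0% = vehicle and 100% = reference inhibitor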
# experimental-context: P. falciparum 3D7 crude extract, LDH APAD/NBT absorbance; at 2 µM; stronger effect = higher value

{"compound": "Oc1ccc(CCNc2nc(NCc3ccccc3-c3ccc(C(F)(F)F)cc3)nc(N3CCNCC3)n2)cc1", "inhibition, %": 8}
{"compound": "CCc1ccc(C2=Nn3c(nnc3-c3cccs3)SC2)cc1", "inhibition, %": 0}
{"compound": "CCC(C)OC(=O)C1=C(C)NC2=C(C(=O)CC(c3ccc(OC)c(OC)c3)C2)C1c1ccc(C)o1 (centres undefined)", "inhibition, %": 2}
{"compound": "Nc1ncnc2nc(-c3ccc(F)cc3)cc(-c3ccc(NC(=O)c4ccccc4)cc3)c12", "inhibition, %": 0}

* * *

Quick reference: growth inhibition of the listed items.
# method-summary: inhibition of 3D7 malaria parasite growth – strain 3D7 (AID 2306);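 further: 0% = DMSO wells and 100% = chloroquine plus artemisinin control wells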
# experimental-context: P. falciparum 3D7 erythrocytic growth, LDH absorbance, 72 h; at 2 µM; stronger effect = higher value
Active and inactive are the calls of the source. No rule for the calls is given here.

{"compound": "COc1ccccc1CCNc1nc(C)cc(N[C@@H](CC(C)C)C(=O)NCc2cccc(F)c2)n1", "growth inhibition": "94% (active)"}
{"compound": "CC(C)CN1CCC(COc2ccc3ncn(-c4cc(O[C@H](C)c5ccccc5C(F)(F)F)c(C(N)=O)s4)c3c2)CC1", "growth inhibition": "97% (active)"}
{"compound": "O=S(=O)(NCCN1CCCC1)c1ccc(-c2cccc(CNCc3ccc(F)cc3)c2)cc1F", "growth inhibition": "97% (active)"}
{"compound": "CC(C)(C(=O)Nc1ccc(C2CCC(NCC3CC3)CC2)c(Cl)c1)c1cccc(OC(F)F)c1 (centres undefined)", "growth inhibition": "99% (active)"}

* * *

# method-summary: inhibition of 3D7 malaria parasite growth – strain 3D7 (AID 2306);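 further: 0% = DMSO wells and 100% = chloroquine plus artemisinin control wells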
# experimental-context: P. falciparum 3D7 erythrocytic growth, LDH absorbance, 72 h; at 2 µM; stronger effect = higher value
Calls of active or inactive are those of the source. The rule behind the calls is not given here.
Quick reference: growth inhibition of the listed items.

{"compound": "CC(C)c1sc(N2CCN(C)CC2)nc1C(=O)NCCc1ccc(Br)cc1", "growth inhibition": "89% (active)"}
{"compound": "Clc1cc(Nc2ccnc3ccc(Br)cc23)ccc1Oc1ccc(Cl)c2ccccc12", "growth inhibition": "99% (active)"}
{"compound": "Cc1cc(NC(=O)Nc2ccc3ccn(C)c3c2)c2ccccc2n1", "growth inhibition": "102% (active)"}
{"compound": "CCN(CC)CCN(Cc1ccc(-c2ccc(C(F)(F)F)cc2)nc1)C(=O)Cn1cc(Cc2cnn(C)c2)c(=O)n2nc(-c3ccccc3)cc12", "growth inhibition": "97% (active)"}
{"compound": "CCOC(=O)c1ccc(OCCOc2ccccc2)cc1", "growth inhibition": "99% (active)"}
{"compound": "CNCCNCc1cccc(-c2ccc(-c3nc4ccccc4[nH]3)s2)c1", "growth inhibition": "99% (active)"}
{"compound": "O=C(Nc1ccc(-n2ccc(C(F)(F)F)n2)cc1)c1cccs1", "growth inhibition": "89% (active)"}
{"compound": "c1cc(-c2nc3ccccc3[nH]2)nc(-c2nc3ccccc3[nH]2)c1", "growth inhibition": "87% (active)"}
{"compound": "N=C(N)c1ccc(NCc2cccc(C(=O)O)c2)cc1", "growth inhibition": "84% (active)"}
{"compound": "CNC(=O)COc1ccc(Nc2nnc(-c3ccc(C)c(S(=O)(=O)NCC4CCCO4)c3)c3ccccc23)cc1 (stereo not given)", "growth inhibition": "90% (active)"}
{"compound": "Cc1cc(OCC2CCCN(c3ncc(C(=O)NC4CC4)cc3Cl)C2)ccc1F (stereo not given)", "growth inhibition": "88% (active)"}
{"compound": "NC1CCN(Cc2ccc(-c3cccc(-c4nc5ccccc5[nH]4)c3)cc2)C1 (stereo not given)", "growth inhibition": "98% (active)"}
{"compound": "CCCc1cc(OC)c(CC2c3cc(O)c(C)cc3CCN2C)cc1OC (stereo not given)", "growth inhibition": "99% (active)"}
{"compound": "Cc1c(Cc2ccccc2)c(=O)oc2c(C)c3c(cc12)CN(CC(C)c1ccccc1)CO3 (stereo not given)", "growth inhibition": "98% (active)"}
{"compound": "Cc1[nH]c2ccccc2c(=O)c1[N+](=O)[O-]", "growth inhibition": "88% (active)"}
{"compound": "CCNc1cc(C(=O)N[C@@H](Cc2ccccc2)[C@H](O)CNC2CCC(F)(F)CC2)c(F)c(N2CCCCS2(=O)=O)c1", "growth inhibition": "100% (active)"}
{"compound": "Cc1cc(N2CCCC2)nc(Nc2ccc(NC(=O)c3cccc(F)c3)cc2)n1", "growth inhibition": "97% (active)"}
{"compound": "Cc1cc(N2CCCC2)nc(Nc2ccc(NC(=O)CC(C)C)cc2)n1", "growth inhibition": "95% (active)"}
{"compound": "CC(Nc1ccnc2cc(Cl)ccc12)c1ccc(S(N)(=O)=O)cc1 (stereo not given)", "growth inhibition": "96% (active)"}
{"compound": "O=C(Nc1ccc(C(F)(F)F)cc1)NC1CCN(CCCCCNC(=O)[C@@H]2C[C@H]2c2ccc(Cl)c(Cl)c2)CC1", "growth inhibition": "101% (active)"}

* * *

# method-summary: antimalarial activity against Dd2 strain (AID 2302);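 further: 0% = DMSO untreated growth and 100% = chloroquine plus artemisinin killed control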
# experimental-context: P. falciparum Dd2 in RBCs, LDH growth readout, 72 h; at 2 µM; stronger effect = higher value

{"compound": "CC(C)C[C@H](Nc1ccnc(NCC2CCCCC2)n1)C(=O)NCCc1ccccc1", "growth inhibition / %": 66}
{"compound": "CCc1ccc(-n2c(=O)c3cccnc3n2CC(=O)NC2CCCC2)cc1", "growth inhibition / %": 27}
{"compound": "CCC1(C)N=C(N)N=C(N)N1c1ccc(Cl)cc1 (stereo not drawn)", "growth inhibition / %": -1}
{"compound": "COc1ccc(CNCC2CCC(CNCCc3ccccc3)CC2)cc1Cl (stereo not drawn)", "growth inhibition / %": 29}
{"compound": "Nc1nc(N)c2c(ccc3c2ccn3Cc2ccccc2)n1", "growth inhibition / %": 94}
{"compound": "Cc1ccc(Oc2ccc(CNc3nc(Nc4cccc(F)c4)nc(Nc4cccc(F)c4)n3)cc2)cc1", "growth inhibition / %": -2}
{"compound": "Cc1ccc(OC2CCN(CCCCC3(C)C(=O)Nc4ccccc43)CC2)cc1 (stereo not drawn)", "growth inhibition / %": 2}
{"compound": "CCCCCCN(CCCCCC)CC(O)c1cc(-c2ccc(Cl)cc2)nc2c(C)cc(C)cc12 (stereo not drawn)", "growth inhibition / %": 98}
{"compound": "O=C(Nc1ccc(OC(F)(F)F)cc1)NC1CCN(c2ccnc3ccccc23)CC1", "growth inhibition / %": 40}
{"compound": "O=C(N[C@H]1CCN(Cc2ccc(OCCN3CCNCC3)c(Br)c2)C1)c1ccc(Cl)c(Cl)c1", "growth inhibition / %": 36}
{"compound": "CCC(C)OC(=O)C1=C(C)NC2=C(C(=O)CC(c3ccc(OC)c(OC)c3)C2)C1c1cccc(O)c1 (stereo not drawn)", "growth inhibition / %": 98}
{"compound": "O=S(=O)(Nc1cc2c(cc1O)CCN(C1CCC1)CC2)c1ccc(Oc2ccc(F)cc2)cc1", "growth inhibition / %": 52}
{"compound": "CC(C)C[C@H](NC(=O)c1ccc(OCCN2CCOCC2)cc1)C(=O)N[C@H](/C=N/N(C)C(=O)c1ccccc1)CCc1ccccc1", "growth inhibition / %": 72}
{"compound": "Oc1ccc2[nH]cc(C3CCN(CCCCCCCCCN4CCC(c5c[nH]c6ccc(O)cc56)CC4)CC3)c2c1", "growth inhibition / %": 2}
{"compound": "O=C(Cn1c(CCc2cccc(F)c2F)nc(=O)c2ccccc21)N(Cc1ccc(-c2ccc(C(F)(F)F)cc2)cc1)C1CCN(C2CCOCC2)CC1", "growth inhibition / %": 76}
{"compound": "CCOC(=O)c1cnc2cc(N3CCCC3)c(Cl)cc2c1OCC", "growth inhibition / %": 97}
{"compound": "Cc1cc2nc(-c3ccc(/C=C/C(=O)NC4CCN(Cc5ccccc5)CC4)cc3)[nH]c2cc1C", "growth inhibition / %": 89}
{"compound": "Cc1[nH]c(C)c(-c2ccc(C(=O)c3ccc(Cl)cc3)cc2)c(=O)c1Cl", "growth inhibition / %": 95}
{"compound": "CC(C)C[C@H](NC(=O)[C@H](Cc1ccccc1)NC(=O)CCN1C(=O)COc2ccc(C(=O)O)cc21)C(=O)NC(CC1CCCCC1)C(O)CC(=O)NCCCn1ccnc1 (stereo partly drawn)", "growth inhibition / %": -4}
{"compound": "CC(C)(C)OC(=O)C1CCCN(Cc2ccc(-c3cccc(-c4nc5ccccc5[nH]4)c3)cc2)C1 (stereo not drawn)", "growth inhibition / %": 27}
{"compound": "Cn1ncc2c3c(CCN4CCC(NCc5ccc6c(c5)NC(=O)CO6)CC4)c(Cl)cnc3ccc21", "growth inhibition / %": 92}
{"compound": "C(=Cc1nc2ccccc2s1)c1ccc2c(c1)OCCO2", "growth inhibition / %": 96}
{"compound": "Cc1cc(NCCC(=O)NCCOc2ccccc2)nc(NCCOc2ccccc2)n1", "growth inhibition / %": 20}
{"compound": "O=C(Nc1ccc(C(F)(F)F)cc1)c1ccc(S(=O)(=O)NC2CCN(Cc3ccccc3)C2)cc1 (stereo not drawn)", "growth inhibition / %": 5}
{"compound": "CN(C)c1cccc(-c2cnc3ccc(NCc4cccc(Cl)c4)nn23)c1", "growth inhibition / %": 98}
{"compound": "CCCC[C@H](NC(=O)O[C@H](COc1ccc(OCc2ccccc2)cc1)C(C)(C)C)C(=O)C(=O)Nc1ccn[nH]1", "growth inhibition / %": 71}
{"compound": "O=C(Nc1ccccc1)OCCOc1ccc(CC2SC(=O)NC2=O)cc1 (stereo not drawn)", "growth inhibition / %": -6}
{"compound": "COc1ccc(C(O)CNC(C)CCc2ccccc2)cc1C(F)(F)F (stereo not drawn)", "growth inhibition / %": 100}
{"compound": "O=C(NCCc1cccc(F)c1)c1ccc(N2CCN(c3ccncc3)CC2)cn1", "growth inhibition / %": 7}
{"compound": "O=C(CCCc1ccccc1)Nc1cccc(N2CCC(N3CCN(c4ccccc4O)CC3)CC2)c1", "growth inhibition / %": 41}
{"compound": "CN1CCC(NCc2ccc(-c3cnc(NCc4ccccc4)nc3)cc2)CC1", "growth inhibition / %": 64}
{"compound": "COc1ccc(-c2cccc(NC(=O)c3ccc(Cl)cc3)c2)cc1CNC(C)C", "growth inhibition / %": 44}
{"compound": "Cc1ccc2c(NN=Cc3cccc(Cl)c3)cc(C)nc2c1", "growth inhibition / %": 52}
{"compound": "CNC(=O)Cc1ccc(C(=O)Nc2cccc(-c3cccc(-c4nc5ccc(C(F)(F)F)cc5[nH]4)c3)c2)cc1", "growth inhibition / %": 37}
{"compound": "CC1(C)N=C(N)N=C(N)N1c1ccccc1", "growth inhibition / %": 1}
{"compound": "CN1CCN(CCCSc2ccc3c(c2)ncn3-c2cc(OCc3ccccc3C(F)(F)F)c(C(N)=O)s2)CC1", "growth inhibition / %": 86}
{"compound": "CC(C)N1CCN(C(=O)c2ccc(CN(C)CCCN3CCN(c4cccc(Cl)c4Cl)CC3)s2)CC1", "growth inhibition / %": 35}
{"compound": "O=C(Nc1ccc(F)cc1)c1cnc(N2CCN(c3ccncc3)CC2)c(Cl)c1", "growth inhibition / %": 81}
